The measurements presented in this section are drawn from PubChem BioAssay.

Entries and their measured z-score follow.
PROCEDURE SUMMARY: PSAC antagonists in infected red cells, primary screen, cell-based, P. falciparum Indochina, OD700, 1 h (AID 1154)
STATED CONDITIONS: P. falciparum Indochina infected RBC osmotic lysis, higher = more signal, called active from +8 up or from −8 down
// keep it numeric: no unit symbol after the value

COMPOUND	z-score
COCCOC(=O)N1C(=O)[C@@]2(c3cc(C#CCNC(N)=O)ccc31)[C@H](c1ccccc1OCCO)N1[C@H](c3ccccc3)[C@H](c3ccccc3)OC(=O)[C@H]1[C@@H]2C(=O)NC[C@H](O)c1ccccc1	2.18
O=C1O[C@@H](c2ccccc2)[C@@H](c2ccccc2)N2[C@@H](c3ccccc3OCCO)[C@]3(C(=O)Nc4ccc(C#CC5=CCCCC5)cc43)[C@@H](C(=O)O)[C@H]12	-1.69

The compound CC(C)C[C@@H]1NC(=O)[C@H](CC(C)C)NC(=O)[C@@]23C(=O)N[C@@H](Cc4ccccc4)C2[C@H](C)[C@@]2(C)O[C@H]2C3/C=C/CC/C=C/CNC1=O (stereo partly drawn) showed z-score equal to 1.7

The compound NC(=O)NCC#Cc1ccc2c(c1)[C@]1(C(=O)N2)[C@H](C(N)=O)[C@H]2C(=O)O[C@H](c3ccccc3)[C@H](c3ccccc3)N2[C@@H]1c1ccccc1OCCO showed z-score equal to 2.15

The compound COc1ccc([Si](C)(C)[C@H]2[C@H](CCO)O[C@@]3(C(=O)N(Cc4ccccc4)c4ccc(N5C(=O)c6cccc7cccc5c67)cc43)[C@@H]2C)cc1 showed z-score equal to 3.41

====

Entries and their measured z-score follow.
PROCEDURE SUMMARY: PSAC antagonists in infected red cells, primary screen, cell-based, P. falciparum Indochina, OD700, 18 h (AID 1157)
STATED CONDITIONS: P. falciparum Indochina infected erythrocytes, osmotic lysis OD700, 18 h; higher = more signal, called active from +8 up or from −8 down
Activity calls are given as the source filed them.

// below: answered compounds
COMPOUND	z-score
COC(=O)C1=CC(c2ccc(CO)cc2)=CC(c2cccs2)N(Cc2cccc(OC(F)(F)F)c2)C=C1C(=O)OC (configuration not stated)	1.43 (inactive)
CN(C)C(=O)[C@@]1(Cc2ccccc2N=[N+]=[N-])N=C(c2ccc(OCCCO)cc2)O[C@H]1c1ccccc1CN=[N+]=[N-]	-0.682 (inactive)
CC(C)CN1C(=O)[C@@]2(Cc3ccccc31)c1ccccc1C(=O)N(C1CCCCC1)[C@H]2c1ccc(CO)cc1	-1.24 (inactive)

The compound C/C(=N\O)C(=O)NCCCCCNC(=O)OCc1ccccc1 showed z-score equal to 0.501 (inactive)

The compound CCc1cccc(NC(=O)O[C@H]2[C@H](OC(=O)Nc3ccccc3)[C@@H](OC(=O)Nc3ccccc3)[C@@H](OC)O[C@@H]2CO)c1 showed z-score equal to 0.667 (inactive)

The compound COC(=O)Cn1c(C(=O)N2CCCC2)cc2c1C[C@H]1CN(C(=O)c3ccccc3)[C@@](Cc3ccccc3)(C(=O)OC)[C@@H]21 showed z-score equal to 0.469 (inactive)

The compound CCOC(=O)C[C@H]1[C@H](OC(=O)Cc2ccc3c(c2)OCO3)[C@@H](NC(=O)CC(C)C)c2cc(OCCCO)ccc2N1C(=O)c1ccccc1 showed z-score equal to -1.5 (inactive)

The compound O=C1O[C@H](c2ccccc2)[C@H](c2ccccc2)N2[C@H]1[C@@H](C(=O)NC[C@H](O)c1ccccc1)[C@]1(C(=O)Nc3ccc(C#CC4=CCCCC4)cc31)[C@H]2c1ccc(OCCO)cc1 showed z-score equal to 2.26 (inactive)

The compound CC(C)(C)OC(=O)CC[C@@]1(C(=O)NCc2ccccc2)N=C(c2ccc(OCCCO)cc2)O[C@@H]1c1ccccc1 showed z-score equal to 1.7 (inactive)

The compound COc1cccc([C@@H]2[C@@H](C)CC[C@H]3C(=O)N4[C@H](c5cccc(OC)c5)[C@@H](C)CC[C@H]4C(=O)N23)c1 showed z-score equal to -0.987 (inactive)
